biological target: Serotonin 3 (5-HT3) receptor (Rattus norvegicus) (UniProt P35563+Q9JJ16); assay: Antagonist potency to 5-hydroxytryptamine 3 receptor was assayed by antagonism of the 5-HT-evoked reflex bradycardia [Bezold-Jarisch(BJ) reflex] in rats; format: functional
# ID50 listing for each entry below
property: ID50 (µg/kg)

> print(dat)
                                   molecule  property  op  recorded.value
1  CCC1CN(C(=O)NC2CC3CCC(C2)N3C)c2ccccc21 (stereo unspecified)      ID50   =             1.5
2  CN1C2CCC1CC(NC(=O)N1CC3(CCCC3)c3ccccc31)C2 (stereo unspecified)      ID50   =             1.2
3  CN1C2CCC1CC(NC(=O)N1CCc3cc(F)ccc31)C2 (stereo unspecified)      ID50   >              10
4  CC1CN(C(=O)NC2CC3CCC(C2)N3C)c2ccccc21 (stereo unspecified)      ID50   =               3
5  CCN1C2CCC1CC(NC(=O)N1CCc3ccccc31)C2 (stereo unspecified)      ID50   >              10
6  CN1C2CCC1CC(NC(=O)N1CCCc3ccccc31)C2 (stereo unspecified)      ID50   >             100

---

biological target: Serotonin 3 (5-HT3) receptor (Rattus norvegicus) (UniProt P35563+Q9JJ16); experiment: Antagonist potency to 5-hydroxytryptamine 3 receptor was assayed by antagonism of the 5-HT-evoked reflex bradycardia [Bezold-Jarisch(BJ) reflex] in rats; assay type: functional
property: ID50 (µg/kg)

> print(dat)
                                   compound  op  recorded.value
1  CN1C2CCCC1CC(NC(=O)c1nn(C)c3ccccc13)C2 (stereo unspecified)   =             0.7
2  CN1C2CCC1CC(NC(=O)N1CC3(CCCCC3)c3ccccc31)C2 (stereo unspecified)   =             3.6
3  CN1C2CCCC1CC(NC(=O)N1CCc3ccccc31)C2 (stereo unspecified)   =            12.5
4  COc1ccc2c(c1)CCN2C(=O)NC1CC2CCC(C1)N2C (stereo unspecified)   >              10
5  CN1C2CCC1CC(NC(=O)N1CCc3ccccc31)C2 (stereo unspecified)   =             1.4
6  CC1N(C(=O)NC2CC3CCC(C2)N3C)c2ccccc2C1(C)C (stereo unspecified)   =             1.4

---

Reported ID50 values are given for each entry in this list.
molecular target: Serotonin 3 (5-HT3) receptor (Rattus norvegicus) (UniProt P35563+Q9JJ16); assay: Antagonist potency to 5-hydroxytryptamine 3 receptor was assayed by antagonism of the 5-HT-evoked reflex bradycardia [Bezold-Jarisch(BJ) reflex] in rats; type: functional
property: ID50 (µg/kg)

> print(dat)
                                    molecule  property  output.unit  op  recorded.value
 1  CN1C2CCC1CC(NC(=O)N1CC(c3ccccc3)c3ccccc31)C2 (configuration not stated)      ID50        µg/kg   =             1.8
 2  CCc1cn(C(=O)NC2CC3CCC(C2)N3C)c2ccccc12 (configuration not stated)      ID50        µg/kg   =               2
 3  CC1c2ccccc2N(C(=O)NC2CC3CCC(C2)N3C)C1C (configuration not stated)      ID50        µg/kg   =             0.5
 4  CN1C2CCC1CC(NC(=O)N1CCc3cc(Cl)ccc31)C2 (configuration not stated)      ID50        µg/kg   >              10
 5  CN1C2CCC1CC(NC(=O)N1CCc3cc([N+](=O)[O-])ccc31)C2 (configuration not stated)      ID50        µg/kg   >              10
 6  CN1C2CCC1CC(NC(=O)n1ccc3ccccc31)C2 (configuration not stated)      ID50        µg/kg   =             7.1
 7  CC1Cc2ccccc2N1C(=O)NC1CC2CCC(C1)N2C (configuration not stated)      ID50        µg/kg   =             0.8
 8  CN1C2CCC1CC(NC(=O)C1=CC(C)(C)c3ccccc31)C2 (configuration not stated)      ID50        µg/kg   =               1
 9  CN1C2CCC1CC(NC(=O)N1CC3(CC3)c3ccccc31)C2 (configuration not stated)      ID50        µg/kg   =             3.5
10  CN1C2CCC1CC(NC(=O)n1cc(-c3ccccc3)c3ccccc31)C2 (configuration not stated)      ID50        µg/kg   =             5.1
11  Cc1cn(C(=O)NC2CC3CCC(C2)N3C)c2ccccc12 (configuration not stated)      ID50        µg/kg   =             1.6
12  CN1C2CCC1CC(OC(=O)N1CCc3ccccc31)C2 (configuration not stated)      ID50        µg/kg   =             4.3
